B1: TPR 5TU (parent)
chain: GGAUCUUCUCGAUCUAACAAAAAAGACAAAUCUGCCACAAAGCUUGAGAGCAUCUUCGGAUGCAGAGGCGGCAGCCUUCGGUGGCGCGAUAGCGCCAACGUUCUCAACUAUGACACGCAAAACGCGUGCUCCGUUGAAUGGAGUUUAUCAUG

Variants of: B1
EXPERIMENT: polymerase ribozyme fitness, log enrichment relative to wild type (log ratio); higher = more active; in vitro selection for triplet polymerase activity
This sample holds only a part of the variants without activity.

SEQUENCE_VARIANT	QUALIFIER_SYMBOL	polymerase ribozyme fitness (log ratio)
A17U A22U A26G G34U C57U G59A C93U	≤	-4.2
A52U A150G	=	-1.24
A21U U33G C72A C95U A122U	≤	-4.2
U53A G68U C76G U130A C132U G136A A142U	≤	-4.2
A30U C79U G83C	≤	-4.2
C57A G94A	=	-0.487
C27U A37U C99G	=	-3.64
C51U C87U	=	-1.13
U31A C125A	=	0.0765
A29G C43U U45A A52C C75G A91U A115G U151G	≤	-4.2
G48A G86U C95U C123A	=	-2.89
A37C G70C C87U U127C	≤	-4.2
G59U G152C	=	-2.8
C27U C95U U102A	=	-2.66
C18U G80U U148C	=	-3.99
U6G A60C C85A C96U G124U	=	-4.11
U4G A22U A37C C95A C96A U127G	≤	-4.2
A16U A19U C103G	=	-4.18
A24G C54A	=	-3.54
C8A C18G A40G C54G A73C C87A U90A C114U	≤	-4.2
G50U U104G G143U	=	-3.47
A49C C51U A73G	≤	-4.2
A41C C93G U144C	=	-3.7
C51A A52C U146G	=	-2.06
A20U G50A U55G C85U A91U A137G	≤	-4.2
U56C C87U	=	-1.06
C5G A52G G83C C93U	=	-3.55
A89G C99G C116A	=	-1.92
U135A A147U	=	-0.75
A21G U31A C51G G71U A89C A106G A110U A138G	≤	-4.2
C43U C54G G92A U148G C149U	≤	-4.2
A16C G94A	=	-1.78
C14U A41C C75G G84U C118A	≤	-4.2
C8U A28U G62U A113C	≤	-4.2
G84A U144A	=	-1.65
A17U C35A C69G U78G G84A A91G C103A	≤	-4.2
A52C G59A G68A C79U G92U U104G	≤	-4.2
U4G A49U C57U U82G A91U	≤	-4.2
A19G U33C A41C A91U C93A A97C	≤	-4.2
U56A A73G	=	-0.236
A39U G58C G74U A91G C123G G133A U146C	≤	-4.2
U44C C96U C103G A115C	=	-4.19
C54G A64G A106U A107C U148A	≤	-4.2
U82A G92C	=	0.508
C76U G84A U101A	=	-0.872
A106G U134A	=	-1.28
